Please go through the items and note down their protein stability index.
B1: POMT2 (parent)
chain: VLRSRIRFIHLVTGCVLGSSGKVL

# Variants of: B1
# PROTOCOL NOTES: protein stability index of a GFP-peptide fusion (GPS, HEK-293T) (PSI 1-6); higher = more stable;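 also: lentivirally expressed fusions sorted by FACS into six bins by GFP to DsRed ratio, PSI derived from sequencing read proportions per bin multiplied by bin number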
# MEASUREMENT CONDITIONS: c terminus: a fixed tail appended

Would you please look over these solved cases?
- MUTANT CODE: "C15G"
  protein stability index: 3.07
- MUTANT CODE: "G18V"
  protein stability index: 1.38
- MUTANT CODE: "C15S"
  protein stability index: 3.04
- MUTANT CODE: "C15F"
  protein stability index: 1.72
- MUTANT CODE: "L17P"
  protein stability index: 1.74

For every item in the list below, what is its measured protein stability index?
1. R3I
2. C15N
3. I6E
4. V23G
5. I9M
6. S19R
7. L2D
8. I6A

output:
3.85
1.4
2.45
3.42
2.73
2.41
3.93
1.64

State the recorded protein stability index for every item in the following list.
1. S20L
2. V1S
3. T13A
4. L2N
5. S19G
6. H10R
7. G18I
8. G14K

output:
[2.12, 3.21, 2.01, 2.4, 1.99, 2.5, 2.37, 3.83]

# variant V16E ; its protein stability index = 2.4
